B1: Max-interacting protein 1, residues 70 to 120; numbered along this chain, P50539 (parent)
chain: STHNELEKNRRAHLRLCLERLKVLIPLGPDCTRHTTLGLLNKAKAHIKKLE

variants of: B1; experiment: abundance fitness (aPCA) (normalised: wild type 0, dead -1); higher = more abundant; growth selection in yeast, the domain comes from the species named; settings: Homo sapiens
So basically: abundance fitness at -0.1 or higher? That is 1. Lower than -0.1? That is 0.

Some entries whose results are on file:
sequence record	category label
STHNELEKNRRAHLRLCLERLKVLIPLGPDCTRHTTLGLLNKAKAHIKKLM [E51M]	1
STHNELEKNRRAHLRLCCERLKVLIPLGPDCTRHTTLGLLNKAKAHIKKLE [L18C]	0
STHNEGEKNRRAHLRLCLERLKVLIPLGPDCTRHTTLGLLNKAKAHIKKLE [L6G]	1

// next entry
Qu. Form field: abundance fitness at least -0.1? Entry: STHNELEKNRSAHLRLCLERLKVLIPLGPDCTRHTTLGLLNKAKAHIKKLE [R11S]
Ans. 0
